- experimental.target: hSTING(R232) (Homo sapiens, UniProt Q86WV6, H232R)
- Sequence (Q86WV6 whole entry H232R): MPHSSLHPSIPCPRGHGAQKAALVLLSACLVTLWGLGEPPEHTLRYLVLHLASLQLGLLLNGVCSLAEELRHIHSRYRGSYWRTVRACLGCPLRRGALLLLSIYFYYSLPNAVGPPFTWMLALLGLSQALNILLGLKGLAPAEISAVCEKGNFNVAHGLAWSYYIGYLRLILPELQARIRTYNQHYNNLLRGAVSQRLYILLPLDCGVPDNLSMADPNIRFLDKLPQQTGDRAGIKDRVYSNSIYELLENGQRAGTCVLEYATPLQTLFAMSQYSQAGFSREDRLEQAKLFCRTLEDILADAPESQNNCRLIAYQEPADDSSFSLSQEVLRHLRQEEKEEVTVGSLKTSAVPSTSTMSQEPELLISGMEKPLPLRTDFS
- test.details: Luciferase reporter assay in HEK293T-hSTING-Luciferase cells, R232 (wild type) human STING
- Assay type: cell-based
- protocol.conditions: 20 hr stimulation, read-out: R232 human activity (EC50 range)
- Excerpt: Stable Cell Line Generation • a) Stable STING expressing cells—Stable HEK293T STING-expressing cell lines were generated using plasmids purchased from Invivogen, CA, USA, that contain STING cDNA cloned into the pUNO-1 vector under hEF1-HTLV promoter and containing the Blasticidin selection cassette. […]
measurement.name: EC50

compound: O=C(NCc1c(F)cc(F)cc1F)c1ccc2c(c1)N(Cc1cc(F)cc(F)c1)C(=O)NC2
experimental.target: hSTING(R232) (Homo sapiens, UniProt Q86WV6, H232R)
measurement.name: EC50
result: 1000 to 10000 nM

compound: C[C@H]1c2ccc(C(=O)NCc3c(F)cc(F)cc3F)cc2N(Cc2c(F)cc(N)cc2F)C(=O)N1C
experimental.target: hSTING(R232) (Homo sapiens, UniProt Q86WV6, H232R)
measurement.name: EC50
result: < 1000 nM

compound: COc1ccc(CN2C(=O)N(C)C(C)c3ccc(C(=O)NCc4c(F)cc(F)cc4F)cc32)c(F)c1 (centres unmarked)
experimental.target: hSTING(R232) (Homo sapiens, UniProt Q86WV6, H232R)
measurement.name: EC50
result: < 1000 nM

compound: C[C@H]1c2ccc(C(=O)NCc3c(F)cc(F)cc3F)cc2N(Cc2c(F)cc(OCC(=O)O)cc2F)C(=O)N1C
experimental.target: hSTING(R232) (Homo sapiens, UniProt Q86WV6, H232R)
measurement.name: EC50
result: > 10000 nM

compound: CN1Cc2ccc(C(=O)NCc3cc4ccccc4o3)cc2N(Cc2cc(F)cc(F)c2)C1=O
experimental.target: hSTING(R232) (Homo sapiens, UniProt Q86WV6, H232R)
measurement.name: EC50
result: 1000 to 10000 nM

[ask] Name the recorded EC50 for `CN1Cc2ccc(C(=O)NCc3c(F)cc(F)cc3F)cc2N(Cc2cnsn2)C1=O` .
[reply] > 10000 nM

[ask] Further, for `C[C@H]1c2ccc(C(=O)NCc3c(F)cc(F)cc3F)cc2N(Cc2cc(OCCCO)ccc2F)C(=O)N1C` ?
[reply] < 1000 nM

[ask] Further, for `C[C@H]1c2ccc(C(=O)NCc3c(F)cc(F)cc3F)cc2N(Cc2c(F)ccc(C(N)=O)c2F)C(=O)N1C` ?
[reply] < 1000 nM

[ask] Further, for `C[C@H]1c2ccc(C(=O)NCc3c(F)cc(F)cc3F)cc2N(Cc2c(Cl)ccc(F)c2F)C(=O)N1C` ?
[reply] < 1000 nM

[ask] Further, for `C[C@@H]1c2ccc(C(=O)NCc3c(F)cc(F)cc3F)cc2N(Cc2c(O)cccc2F)C(=O)N1C` ?
[reply] 1000 to 10000 nM

[ask] Further, for `C[C@H]1c2ccc(C(=O)NCc3c(F)cc(F)cc3F)cc2N(Cc2c(OCC(=O)O)ccc(F)c2F)C(=O)N1C` ?
[reply] < 1000 nM

[ask] Further, for `C[C@H]1c2ccc(C(=O)NCc3cc(O)cc(F)c3)cc2N(Cc2c(F)cccc2Cl)C(=O)N1C` ?
[reply] < 1000 nM

[ask] Further, for `O=C(NCc1c(F)cc(F)cc1F)c1ccc2c(c1)N(Cc1c(F)cccc1Cl)C(=O)N(c1ncccn1)C2` ?
[reply] > 10000 nM

[ask] Further, for `C[C@H]1c2ccc(C(=O)NCc3c(F)cc(F)cc3F)cc2N(Cc2c(OP(=O)(O)O)ccc(F)c2F)C(=O)N1C` ?
[reply] 1000 to 10000 nM

====

- experimental.target: hSTING(R232) (Homo sapiens, UniProt Q86WV6, H232R)
- test.details: Luciferase reporter assay in HEK293T-hSTING-Luciferase cells, R232 (wild type) human STING
- Format: cell-based
- protocol.conditions: 20 hr stimulation, read-out: R232 human activity (EC50 range)
pEC50: −log10 of the molar value.
pEC50 values by entry

// below: answered molecules
molecule: CN1Cc2ccc(C(=O)NCc3c(F)cc(F)cc3F)cc2N(Cc2cn(C)cn2)C1=O [Example 37]
measurement.name: pEC50
result: < 5.00
--
molecule: C[C@@H]1c2ccc(C(=O)NCc3c(F)cc(F)cc3F)cc2N(Cc2c(F)cccc2Cl)C(=O)N1C (single isomer, unassigned) [Example 75]
measurement.name: pEC50
result: 5.00 to 6.00
--
molecule: Cc1ccc(-c2nc(CN3C(=O)N(C)Cc4ccc(C(=O)NCc5c(F)cc(F)cc5F)cc43)c(C)o2)cc1 [Example 40]
measurement.name: pEC50
result: < 5.00
--
molecule: CN1Cc2ccc(C(=O)NCc3cccc(-c4ncco4)c3)cc2N(Cc2c(F)cccc2Cl)C1=O [Example 25]
measurement.name: pEC50
result: < 5.00

Now turn to the next molecule.
[ask] Name the recorded pEC50 for C[C@H]1c2ccc(C(=O)NCc3c(F)cc(F)cc3F)cc2N(Cc2c(F)cc(OC(=O)N(C)CCC(=O)OCc3ccccc3)cc2F)C(=O)N1C [Example 86] .
[reply] 5.00 to 6.00

====

- experimental.target: hSTING(R232) (Homo sapiens, UniProt Q86WV6, H232R)
- test.details: Luciferase reporter assay in HEK293T-hSTING-Luciferase cells, R232 (wild type) human STING
- Type: cell-based
- protocol.conditions: 20 hr stimulation, read-out: R232 human activity (EC50 range)
- Text: Stable Cell Line Generation • a) Stable STING expressing cells—Stable HEK293T STING-expressing cell lines were generated using plasmids purchased from Invivogen, CA, USA, that contain STING cDNA cloned into the pUNO-1 vector under hEF1-HTLV promoter and containing the Blasticidin selection cassette. […]
EC50 values by entry

compound: CC1NC(=O)N(Cc2c(F)cccc2Cl)c2cc(C(=O)NCc3c(F)cc(F)cc3F)ccc21 (stereo not drawn)
EC50: 1000 to 10000 nM

compound: CC1c2ccc(C(=O)NCc3c(F)cc(F)cc3F)cc2N(Cc2ccc(F)cc2Cl)C(=O)N1C (stereo not drawn)
EC50: < 1000 nM

Now turn to the next compound.
[ask] Please tell me: EC50 of `C[C@H]1c2ccc(C(=O)NCc3c(F)cc(F)cc3F)cc2N(Cc2c(F)cc(OC[C@H](O)CO)cc2F)C(=O)N1C` , system hSTING(R232) (Homo sapiens, UniProt Q86WV6, H232R)?
[reply] < 1000 nM

====

EC50 values by entry
- experimental.target: hSTING(R232) (Homo sapiens, UniProt Q86WV6, H232R)
- test.details: Luciferase reporter assay in HEK293T-hSTING-Luciferase cells, R232 (wild type) human STING
- Assay type: cell-based
- protocol.conditions: 20 hr stimulation, read-out: R232 human activity (EC50 range)

// below: answered compounds
chemical.structure: CN1Cc2ccc(C(=O)NCc3ccc4occc4c3)cc2N(Cc2c(F)cccc2Cl)C1=O
EC50: 1000 to 10000 nM

chemical.structure: C[C@H]1c2ccc(C(=O)NCc3c(F)cc(F)cc3F)cc2N(Cc2c(F)cncc2Br)C(=O)N1C
EC50: < 1000 nM

chemical.structure: COc1cc(F)c(CNC(=O)c2ccc3c(c2)N(Cc2c(F)cc(OC)cc2F)C(=O)N(C)[C@H]3C)c(F)c1
EC50: < 1000 nM

[ask] Please tell me: EC50 of `CN1Cc2ccc(C(=O)NCc3cccc4c3OCCO4)cc2N(Cc2c(F)cccc2Cl)C1=O` , system hSTING(R232) (Homo sapiens, UniProt Q86WV6, H232R)?
[reply] > 10000 nM

[ask] Further, for `Cc1cccc(F)c1CN1C(=O)N(C)Cc2ccc(C(=O)NCc3c(F)cc(F)cc3F)cc21` ?
[reply] < 1000 nM

====

- experimental.target: hSTING(R232) (Homo sapiens, UniProt Q86WV6, H232R)
- test.details: Luciferase reporter assay in HEK293T-hSTING-Luciferase cells, R232 (wild type) human STING
- Format: cell-based
- protocol.conditions: 20 hr stimulation, read-out: R232 human activity (EC50 range)
pEC50: −log10 of the molar value.
measurement.name: pEC50

compound: CN1Cc2ccc(C(=O)NCCn3cncn3)cc2N(Cc2c(F)cccc2Cl)C1=O [Example 26]
measurement.name: pEC50
result: < 5.00

[ask] Name the recorded pEC50 for O=C(NCc1c(F)cc(F)cc1F)c1ccc2c(c1)N(Cc1c(F)cccc1Cl)C(=O)N(O)C2 [Example 69] .
[reply] < 5.00

[ask] Further, for Cc1cccc(F)c1CN1C(=O)N(C)C(C)c2ccc(C(=O)NCc3c(F)cc(F)cc3F)cc21 (stereo not shown) [Example 203] ?
[reply] > 6.00

[ask] Further, for CC(C)N1Cc2ccc(C(=O)NCc3c(F)cc(F)cc3F)cc2N(Cc2cc(F)cc(F)c2)C1=O [Example 15] ?
[reply] 5.00 to 6.00

[ask] Further, for Cc1cc(CN2C(=O)N(C)C(C)c3ccc(C(=O)NCc4c(F)cc(F)cc4F)cc32)c(F)cn1 (stereo not shown) [Example 237] ?
[reply] > 6.00

[ask] Further, for CN1Cc2ccc(C(=O)NCc3c(F)cc(F)cc3F)cc2N(Cc2c(F)cccc2Br)C1=O [Example 11] ?
[reply] > 6.00

[ask] Further, for COc1cc(F)cc(CNC(=O)c2ccc3c(c2)N(Cc2c(F)cccc2Cl)C(=O)N(C)[C@H]3C)c1 [Example 248] ?
[reply] 5.00 to 6.00

[ask] Further, for CC1c2ccc(C(=O)NCc3c(F)cc(F)cc3F)cc2N(Cc2cc(F)cc(F)c2)C(=O)N1C (stereo not shown) [Example 156] ?
[reply] > 6.00

[ask] Further, for CC(O)c1ccc(F)c(CN2C(=O)N(C)[C@@H](C)c3ccc(C(=O)NCc4c(F)cc(F)cc4F)cc32)c1F (stereo partly shown) [Example 289] ?
[reply] > 6.00

[ask] Further, for Cc1cc(CN2C(=O)N(C)Cc3ccc(C(=O)NCc4c(F)cc(F)cc4F)cc32)nn1C [Example 57] ?
[reply] < 5.00

[ask] Further, for C[C@H]1c2ccc(C(=O)NCc3c(F)cc(F)cc3F)cc2N(Cc2cc(O)cc(F)c2F)C(=O)N1C [Example 281] ?
[reply] > 6.00

[ask] Further, for CC1c2ccc(C(=O)NCc3c(F)cc(F)cc3F)cc2N(Cc2cc(C(N)=O)ccc2F)C(=O)N1C (stereo not shown) [Example 167] ?
[reply] > 6.00

[ask] Further, for Cc1cccc(F)c1CN1C(=O)N(C)C(C)c2ccc(C(=O)NCc3c(F)cc(F)cc3F)cc21 (stereo not shown) [Example 162] ?
[reply] > 6.00

[ask] Further, for CN1Cc2ccc(C(=O)NCc3c(F)cc(F)cc3F)cc2N(Cc2ccc(F)cc2F)C1=O [Example 8] ?
[reply] > 6.00

[ask] Further, for CC1c2ccc(C(=O)NCc3c(F)cc(F)cc3F)cc2N(Cc2c(F)cccc2Br)C(=O)N1C (stereo not shown) [Example 159] ?
[reply] > 6.00

[ask] Further, for C[C@H]1c2ccc(C(=O)NCc3c(F)cc(F)cc3F)cc2N(Cc2cc(N)ccc2F)C(=O)N1C [Example 273] ?
[reply] > 6.00

[ask] Further, for Cc1ccc(Cl)c(CN2C(=O)N(C)C(C)c3ccc(C(=O)NCc4c(F)cc(F)cc4F)cc32)c1F (stereo not shown) [Example 163] ?
[reply] > 6.00

[ask] Further, for CC1c2ccc(C(=O)NCc3ccc(O)cc3)cc2N(Cc2c(F)cccc2Cl)C(=O)N1C (stereo not shown) [Example 235] ?
[reply] 5.00 to 6.00

[ask] Further, for Cc1cc(CN2C(=O)N(C)C(C)c3ccc(C(=O)NCc4c(F)cc(F)cc4F)cc32)ccn1 (stereo not shown) [Example 198] ?
[reply] > 6.00

[ask] Further, for C[C@H]1c2ccc(C(=O)NCc3c(F)cc(F)cc3F)cc2N(Cc2ccc(N=[N+]=[N-])cc2)C(=O)N1C [Example 239] ?
[reply] > 6.00

[ask] Further, for Cc1ncc(CN2C(=O)N(C)Cc3ccc(C(=O)NCc4c(F)cc(F)cc4F)cc32)s1 [Example 20] ?
[reply] 5.00 to 6.00

[ask] Further, for CC1c2ccc(C(=O)NCc3c(F)cc(F)cc3F)cc2N(Cc2ccncc2F)C(=O)N1C (stereo not shown) [Example 211] ?
[reply] > 6.00

[ask] Further, for C[C@H]1c2ccc(C(=O)NCc3c(F)cc(F)cc3F)cc2N(Cc2c(F)cc(OCCNS(C)(=O)=O)cc2F)C(=O)N1C [Example 290] ?
[reply] > 6.00
